# System Tested: Cyclin-dependent kinase 5 (Homo sapiens) + Cyclin-dependent kinase 5 activator 1 (Homo sapiens) (UniProt Q00535+Q15078)
# Sequence (Q00535 whole entry, looked up): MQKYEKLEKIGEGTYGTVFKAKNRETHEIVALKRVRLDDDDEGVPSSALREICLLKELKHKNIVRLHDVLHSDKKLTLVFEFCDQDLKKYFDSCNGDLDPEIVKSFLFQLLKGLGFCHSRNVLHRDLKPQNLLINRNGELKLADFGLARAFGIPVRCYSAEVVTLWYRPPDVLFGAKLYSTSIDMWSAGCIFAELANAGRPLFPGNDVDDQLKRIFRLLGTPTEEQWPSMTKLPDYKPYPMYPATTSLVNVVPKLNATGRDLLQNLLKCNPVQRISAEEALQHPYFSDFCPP
# Sequence (Q15078 whole entry, looked up): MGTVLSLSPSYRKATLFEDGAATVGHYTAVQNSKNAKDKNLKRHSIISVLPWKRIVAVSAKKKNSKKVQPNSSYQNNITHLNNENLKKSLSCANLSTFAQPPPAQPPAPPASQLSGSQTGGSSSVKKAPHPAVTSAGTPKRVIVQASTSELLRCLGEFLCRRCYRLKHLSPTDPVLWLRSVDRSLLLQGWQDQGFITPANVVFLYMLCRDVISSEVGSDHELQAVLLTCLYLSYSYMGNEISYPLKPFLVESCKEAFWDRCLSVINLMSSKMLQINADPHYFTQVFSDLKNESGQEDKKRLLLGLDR
# Assay Method Text: inhibitors of human CDK5 activity – biochemical, ADP-Glo luminescence, dry powder samples, selectivity assay for GSK3beta inhibitor project, dose response (AID 623999)
# Protocol Conditions: CDK5-p25 kinase, histone H1 peptide
Inconclusive results are not listed.
Entries and their AC50 values follow.

# Compound, AC50
records = [
    ("Cc1cccc(C2C3=C(CC(C)(C)CC3=O)Nc3n[nH]c(C)c32)c1 (stereo unspecified)", "39.7 µM"),
    ("COc1ccccc1C1C2=C(CCCC2=O)Nc2n[nH]c(C)c21 (stereo unspecified)", "15.1 µM"),
    ("CC1(C)CC(=O)C2=C(C1)Nc1n[nH]c(C(F)(F)F)c1C2c1ccccc1F (stereo unspecified)", "47.2 µM"),
    ("COc1ccccc1C1C2=C(CC(C)(C)CC2=O)Nc2[nH]ncc21 (stereo unspecified)", "5.82 µM"),
    ("Cc1[nH]nc2c1C(c1ccccc1Cl)C1=C(CC(C)(C)CC1=O)N2 (stereo unspecified)", "5.1 µM"),
    ("O=S(=O)(Nc1ccccn1)c1ccc(N=Cc2c(O)[nH]c3ccc4ncsc4c23)cc1", "0.418 µM"),
    ("Cc1[nH]nc2c1C(c1ccccc1C#N)C1=C(CC(C)(C)CC1=O)N2 (stereo unspecified)", "4.04 µM"),
    ("CC1(C)CC(=O)C2=C(C1)Nc1n[nH]c(C(F)(F)F)c1C2c1cc(F)ccc1C(F)(F)F (stereo unspecified)", "8.29 µM"),
    ("Cc1[nH]nc2c1C(c1cccc(C#N)c1)C1=C(CC(C)(C)CC1=O)N2 (stereo unspecified)", "6.81 µM"),
    ("COc1ccccc1C1C2=C(CC(C)(C)CC2=O)Nc2n[nH]c(C(C)C)c21 (stereo unspecified)", "4.84 µM"),
    ("Cc1[nH]nc2c1C(c1ccccc1C(F)(F)F)C1=C(CC(C)(C)CC1=O)N2 (stereo unspecified)", "0.841 µM"),
    ("Cc1[nH]nc2c1C(c1cccc(C(F)(F)F)c1)C1=C(CC(C)(C)CC1=O)N2 (stereo unspecified)", "10.9 µM"),
    ("Cc1[nH]nc2c1[C@@H](c1ccccc1C(F)(F)F)C1=C(CC(C)(C)CC1=O)N2", "0.461 µM"),
    ("COc1ccccc1C1C2=C(CC3(CCCCC3)CC2=O)Nc2n[nH]c(C)c21 (stereo unspecified)", "5.88 µM"),
    ("CC1(C)CC(=O)C2=C(C1)Nc1n[nH]c(C(F)(F)F)c1C2c1cc(F)ccc1F (stereo unspecified)", "47.4 µM"),
    ("CC1(C)CC(=O)C2=C(C1)Nc1n[nH]c(C(F)(F)F)c1C2c1ccccc1 (stereo unspecified)", "22.2 µM"),
    ("O/N=C/c1cn(-c2ccccc2)nc1-c1ccc(Cl)cc1", "25.4 µM"),
    ("COc1ccccc1C1C(C(C)=O)=C(C)Nc2n[nH]c(C)c21 (stereo unspecified)", "9.55 µM"),
    ("CC1(C)CC(=O)C2=C(C1)Nc1n[nH]c(C(F)(F)F)c1C2c1ccc(F)cc1C(F)(F)F (stereo unspecified)", "22.4 µM"),
    ("COc1ccccc1-c1c2c(nc3n[nH]c(C)c13)CCC2=O", "34.6 µM"),
    ("Cc1[nH]nc2c1C(C)(c1ccccc1)C1=C(CC(C)(C)CC1=O)N2 (stereo unspecified)", "14.5 µM"),
]

* * *

# System Tested: Cyclin-dependent kinase 5 (Homo sapiens) + Cyclin-dependent kinase 5 activator 1 (Homo sapiens) (UniProt Q00535+Q15078)
# Assay Method Text: inhibitors of human CDK5 activity – biochemical, ADP-Glo luminescence, dry powder samples, selectivity assay for GSK3beta inhibitor project, dose response (AID 623999)
# Protocol Conditions: CDK5-p25 kinase, histone H1 peptide
Records with an inconclusive call do not appear.
Quantity Measured: AC50

# Compound, Data Value
measured = [
    ("CCc1[nH]nc2c1C(c1ccccc1OC)C1=C(CC(C)(C)CC1=O)N2 (stereo not drawn)", "2.22 µM"),
    ("Cc1[nH]nc2c1C(c1cccc3nonc13)C1=C(CC(C)(C)CC1=O)N2 (stereo not drawn)", "2.57 µM"),
    ("CC1(C)CC(=O)C2=C(C1)Nc1n[nH]c(C(F)(F)F)c1C2c1cc(F)ccc1OC(F)(F)F (stereo not drawn)", "32.6 µM"),
    ("CSc1ccccc1C1C2=C(CC(C)(C)CC2=O)Nc2n[nH]c(C)c21 (stereo not drawn)", "3.98 µM"),
    ("Cc1ccccc1C1C2=C(CC(C)(C)CC2=O)Nc2n[nH]c(C)c21 (stereo not drawn)", "16.5 µM"),
    ("CC1(C)CC(=O)C2=C(C1)Nc1n[nH]c(C(F)(F)F)c1C2c1c(F)cccc1F (stereo not drawn)", "43 µM"),
    ("COc1ccccc1C1C2=C(CCC(C)(C)C2=O)Nc2n[nH]c(C)c21 (stereo not drawn)", "10.1 µM"),
    ("Cc1[nH]nc2c1C(C)C1=C(CC(C)(C)CC1=O)N2 (stereo not drawn)", "27.8 µM"),
]

All figures here come from PubChem BioAssay AID623999.
